// data source = paper PMC8493129

# System: HepG-2 and HuH-7 liver cancer cell lines
# protocol.description: Anti-proliferative activity, statements covering both cell lines
# Format: cell-based, human
# recorded.conditions: class by IC50 on HepG-2 and HuH-7
property.name: cytotoxic (anti-proliferative) activity class

>>> observed_value("COc1nc2ccccc2nc1NN=Cc1c(O)ccc2ccccc12 [Compound 11]")
"strong (11–20 (strong))"
>>> observed_value("O=C1Nc2ccccc2/C1=N\\Nc1nc2ccccc2nc1Cl [Compound 9]")
"strong (11–20 (strong))"

---

# target.entity: HDAC6 (Homo sapiens, UniProt Q9UBN7)
# Sequence (Q9UBN7 1-1215): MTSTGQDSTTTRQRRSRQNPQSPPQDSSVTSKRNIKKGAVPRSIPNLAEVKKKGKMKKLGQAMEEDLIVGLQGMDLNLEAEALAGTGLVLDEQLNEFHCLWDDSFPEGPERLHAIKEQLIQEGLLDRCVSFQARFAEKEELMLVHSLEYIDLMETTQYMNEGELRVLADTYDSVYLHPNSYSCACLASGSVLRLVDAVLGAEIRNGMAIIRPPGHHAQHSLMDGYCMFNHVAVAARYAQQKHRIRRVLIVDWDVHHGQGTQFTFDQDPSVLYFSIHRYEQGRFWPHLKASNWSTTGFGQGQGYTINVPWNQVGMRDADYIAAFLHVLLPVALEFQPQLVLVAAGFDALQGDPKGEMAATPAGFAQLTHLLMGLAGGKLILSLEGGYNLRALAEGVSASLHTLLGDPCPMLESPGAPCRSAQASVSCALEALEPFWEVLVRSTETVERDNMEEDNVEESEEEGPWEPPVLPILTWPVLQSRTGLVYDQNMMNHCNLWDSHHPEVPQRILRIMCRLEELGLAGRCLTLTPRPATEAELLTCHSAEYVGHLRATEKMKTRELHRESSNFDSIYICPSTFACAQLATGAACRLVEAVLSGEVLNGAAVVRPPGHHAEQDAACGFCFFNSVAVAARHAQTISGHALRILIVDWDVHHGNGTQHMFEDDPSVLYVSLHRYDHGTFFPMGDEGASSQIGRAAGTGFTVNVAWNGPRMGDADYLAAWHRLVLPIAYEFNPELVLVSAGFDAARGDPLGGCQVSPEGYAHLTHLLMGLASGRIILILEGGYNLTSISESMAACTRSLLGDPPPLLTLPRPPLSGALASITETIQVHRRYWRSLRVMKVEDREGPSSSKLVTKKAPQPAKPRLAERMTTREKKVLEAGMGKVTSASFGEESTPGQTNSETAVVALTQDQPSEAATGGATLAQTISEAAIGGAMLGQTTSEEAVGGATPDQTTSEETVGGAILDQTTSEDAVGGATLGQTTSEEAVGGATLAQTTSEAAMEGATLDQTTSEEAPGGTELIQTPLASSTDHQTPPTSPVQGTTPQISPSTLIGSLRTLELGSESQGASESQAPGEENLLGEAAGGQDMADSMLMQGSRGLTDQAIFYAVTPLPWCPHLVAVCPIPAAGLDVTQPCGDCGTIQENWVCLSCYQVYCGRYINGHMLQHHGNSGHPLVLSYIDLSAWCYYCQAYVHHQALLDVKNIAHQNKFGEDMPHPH
Threshold-based label: IC50 under 4 µM gives met, IC50 not under 4 µM gives not met.

>>> cat("COc1nc2ccccc2nc1N/N=C1/C(=O)Nc2ccccc21")
"met"
>>> cat("COc1ccc(C=NNc2nc3ccccc3nc2Cl)cc1OC")
"met"
>>> cat("COc1ccccc1C=NNc1nc2ccccc2nc1Cl")
"not met"

*Q* Bench note: check whether Oc1ccc2ccccc2c1C=NNc1nc2ccccc2nc1Cl shows IC50 below 4 µM
*A* not met

*Q* Bench note: check whether Oc1ccccc1C=NNc1nc2ccccc2nc1Cl shows IC50 below 4 µM
*A* not met
